The origin of these recorded values is paper PMC9501899.

- assay details: Pharmacokinetic (PK) study in mice
- Type: in vivo, C57BL/6 male mice
- measurement context: male, C57BL/6; PO 30 mg/kg, mouse plasma
experimental readout: AUC(0-inf) (µg·h/mL)
Lab book: enter the figure in µg·h/mL, no units written.

input: Entry CNc1nc(Nc2ccc(C(=O)N3CCN(C[C@H]4CC[C@H](CSC(C)(C)[C@H](NC(=O)C5(F)CC5)C(=O)N5C[C@H](O)CC5C(=O)NCc5ccc(-c6scnc6C)cc5)CC4)CC3)cc2OC)ncc1Cl (stereo partly shown) : reported AUC(0-inf) = ?
output: 109

----------
- assay details: Pharmacokinetic (PK) study in mice
- Format: in vivo, C57BL/6 male mice
- measurement context: male, C57BL/6; IV 5 mg/kg, mouse plasma
experimental readout: half-life (h)
Lab book: enter the figure in h, no units written.

input: Entry CNc1nc(Nc2ccc(C(=O)N3CCN(C[C@H]4CC[C@H](CSC(C)(C)[C@H](NC(=O)C5(F)CC5)C(=O)N5C[C@H](O)CC5C(=O)NCc5ccc(-c6scnc6C)cc5)CC4)CC3)cc2OC)ncc1Cl (stereo partly shown) [XL01126] : reported half-life = ?
output: 1.52

----------
- assay details: Solubility in phosphate buffer and FeSSIF
- Format: physicochemical
- measurement context: 100 mM phosphate buffer, pH 7.4; read-out: solubilities in PBS (pH 7.4)
- Method: Eight microliters of reference or test compound stock solution (10 mM in DMSO) was added to 792 μL of 100 mM phosphate buffer (pH 7.4) or FeSSIF (pH 5.8). The resulting mixture was shaken for 1 h (1000 rpm) at room temperature and then centrifuged for 10 min (12 000 rpm) to remove the undissolved particles. The supernatant was collected and diluted 10 times and 100 times separately with 100 mM phosphate buffer or FeSSIF. […]
experimental readout: solubility at 1 h

input: Entry CNc1nc(Nc2ccc(C(=O)N3CCN(C[C@H]4CC[C@H](CSC(C)(C)[C@H](NC(=O)C5(F)CC5)C(=O)N5C[C@H](O)CC5C(=O)NCc5ccc(-c6scnc6C)cc5)CC4)CC3)cc2OC)ncc1Cl (stereo partly shown) [XL01126] : reported solubility at 1 h = ?
output: 0.55 µM

----------
- assay details: Pharmacokinetic (PK) study in mice
- Format: in vivo, C57BL/6 male mice
- measurement context: male, C57BL/6; IV 5 mg/kg, mouse plasma
experimental readout: clearance (mL/min/kg)
Lab book: enter the figure in mL/min/kg, no units written.

input: Entry CNc1nc(Nc2ccc(C(=O)N3CCN(C[C@H]4CC[C@H](CSC(C)(C)[C@H](NC(=O)C5(F)CC5)C(=O)N5C[C@H](O)CC5C(=O)NCc5ccc(-c6scnc6C)cc5)CC4)CC3)cc2OC)ncc1Cl (stereo partly shown) : reported clearance = ?
output: 3.47

----------
- assay details: Mouse hepatocyte stability
- Assay type: in vitro ADME
- measurement context: mouse hepatocytes; read-out: T1/2 in mouse hepatocytes
experimental readout: half-life at 1 µM (h)
Lab book: enter the figure in h, no units written.

input: Entry CNc1nc(Nc2ccc(C(=O)N3CCN(C[C@H]4CC[C@H](CSC(C)(C)[C@H](NC(=O)C5(F)CC5)C(=O)N5C[C@H](O)CC5C(=O)NCc5ccc(-c6scnc6C)cc5)CC4)CC3)cc2OC)ncc1Cl (stereo partly shown) : reported half-life at 1 µM = ?
output: 5.24
